- TARGET_SYSTEM: Muscarinic acetylcholine receptor M2 (Homo sapiens, UniProt P08172)
- Sequence (P08172 whole entry): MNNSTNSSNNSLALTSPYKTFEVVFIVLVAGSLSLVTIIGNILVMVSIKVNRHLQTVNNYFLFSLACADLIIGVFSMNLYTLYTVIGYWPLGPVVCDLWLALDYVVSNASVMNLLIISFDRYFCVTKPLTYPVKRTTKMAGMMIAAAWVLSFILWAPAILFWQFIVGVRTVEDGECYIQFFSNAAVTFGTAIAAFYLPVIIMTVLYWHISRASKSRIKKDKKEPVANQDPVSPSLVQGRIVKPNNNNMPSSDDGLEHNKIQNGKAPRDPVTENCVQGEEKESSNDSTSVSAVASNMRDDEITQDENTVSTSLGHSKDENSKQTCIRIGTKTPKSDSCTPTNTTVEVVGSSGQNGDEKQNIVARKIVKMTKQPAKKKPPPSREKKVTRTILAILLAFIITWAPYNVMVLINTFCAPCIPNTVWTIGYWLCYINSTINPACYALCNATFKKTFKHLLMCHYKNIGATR
- TEST_DETAILS: Displacement of [3H]-NMS from human muscarinic M2 receptor expressed in CHO-K9 cells after 3 hrs by microbeta2 scintillation counting method
- Assay type: cell-based
MEASURED_QUANTITY: pKi
Lab note — pKi values are minus log10 of concentrations in M.

Which pKi value is on record for CC(=O)N[C@@H](Cc1c[nH]c2ccccc12)C(=O)N[C@@H](Cc1ccc(O)cc1)C(=O)NCCN1CCN(CCCCC2CCN(CC(=O)N3c4ccccc4NC(=O)c4ccccc43)CC2)CC1 ? 9.83

Which pKi value is on record for N=C(N)NCCC[C@H](N)C(=O)NCCCCC1CCN(CC(=O)N2c3ccccc3NC(=O)c3ccccc32)CC1 ? 8.27

Which pKi value is on record for CC(=O)N[C@@H](CCCCN)C(=O)N[C@@H](CCCNC(=N)N)C(=O)NCC(=O)NCCCCC1CCN(CC(=O)N2c3ccccc3NC(=O)c3ccccc32)CC1 ? 8.38

src = ChEMBL document CHEMBL4396879
